- measuredTarget: Alpha-2A adrenergic receptor (Homo sapiens); also: assay procedure not described here
- Sequence (P08913 whole entry): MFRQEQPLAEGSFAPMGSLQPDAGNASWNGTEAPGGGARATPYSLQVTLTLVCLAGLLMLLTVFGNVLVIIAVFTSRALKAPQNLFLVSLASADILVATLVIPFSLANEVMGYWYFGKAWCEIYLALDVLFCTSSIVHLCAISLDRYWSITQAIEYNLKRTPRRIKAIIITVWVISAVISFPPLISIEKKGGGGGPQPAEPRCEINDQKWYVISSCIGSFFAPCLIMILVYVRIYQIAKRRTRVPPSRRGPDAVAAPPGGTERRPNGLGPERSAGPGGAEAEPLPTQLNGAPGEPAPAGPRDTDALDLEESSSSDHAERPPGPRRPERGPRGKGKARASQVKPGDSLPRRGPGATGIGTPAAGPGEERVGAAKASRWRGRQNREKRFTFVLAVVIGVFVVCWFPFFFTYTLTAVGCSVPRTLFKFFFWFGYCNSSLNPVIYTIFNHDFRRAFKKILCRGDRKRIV
measurementType: AC50

1. C#C[C@]1(O)CC[C@H]2[C@@H]3CCc4cc(O)ccc4[C@H]3CC[C@@]21C    > 10 µM
2. CN1CCN(C(=O)OC2c3nccnc3C(=O)N2c2ccc(Cl)cn2)CC1 (stereo not given)    > 10 µM
3. CCCCCN(C)CCC(O)(P(=O)(O)O)P(=O)(O)O    > 10 µM
4. COc1cc(Nc2c(C#N)cnc3cc(OCCCN4CCN(C)CC4)c(OC)cc23)c(Cl)cc1Cl    6.01 µM
5. CN[C@@H](C)[C@H](O)c1ccccc1    > 10 µM
6. NC(CO)C(=O)NNCc1ccc(O)c(O)c1O (stereo not given) [BENSERAZIDE]    > 10 µM
7. CN(C)CCCN1c2ccccc2CCc2ccc(Cl)cc21    > 10 µM
8. O=C1CCC(N2C(=O)c3ccccc3C2=O)C(=O)N1 (stereo not given) [THALIDOMIDE]    > 10 µM
9. COc1cc2c(cc1OC)C(=O)C(CC1CCN(Cc3ccccc3)CC1)C2 (stereo not given)    10.4 µM
10. NC(=O)C[S+]([O-])C(c1ccccc1)c1ccccc1 (stereo not given)    > 10 µM

----------
Measured AC50 accompanies every entry in the list below.
- measuredTarget: Histamine H1 receptor (Homo sapiens, UniProt P35367); also: assay procedure not described here
- Sequence (P35367 whole entry): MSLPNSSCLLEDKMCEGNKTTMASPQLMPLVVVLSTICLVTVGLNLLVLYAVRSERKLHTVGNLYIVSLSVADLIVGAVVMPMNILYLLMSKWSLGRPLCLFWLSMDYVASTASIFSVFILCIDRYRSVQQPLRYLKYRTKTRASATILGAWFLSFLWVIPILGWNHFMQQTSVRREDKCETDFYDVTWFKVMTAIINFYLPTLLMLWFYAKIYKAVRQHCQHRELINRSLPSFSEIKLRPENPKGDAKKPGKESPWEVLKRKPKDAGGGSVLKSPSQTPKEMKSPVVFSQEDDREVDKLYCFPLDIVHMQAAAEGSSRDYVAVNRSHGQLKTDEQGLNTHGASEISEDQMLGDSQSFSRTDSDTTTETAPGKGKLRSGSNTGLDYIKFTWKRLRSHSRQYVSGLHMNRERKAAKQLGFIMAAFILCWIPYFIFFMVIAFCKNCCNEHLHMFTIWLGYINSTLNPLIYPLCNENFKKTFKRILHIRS
- Assay type: functional, cell-based
measurementType: AC50

1) Nc1ncnc2c1ncn2[C@@H]1O[C@H](COP(=O)(O)O)[C@@H](O)[C@H]1O [ADENOSINE PHOSPHATE]    > 30 µM
2) NC(CO)C(=O)NNCc1ccc(O)c(O)c1O (configuration not stated) [BENSERAZIDE]    > 30 µM
3) COc1ccc(C(=O)N2CCN(c3ccc4c(c3)CCC(=O)N4)CC2)cc1OC    > 30 µM
4) CC/C=C\C/C=C\C/C=C\CCCCCCCC(=O)O    > 30 µM
5) CC(C(=O)O)c1ccc(N2CC=CC2)c(Cl)c1 (configuration not stated)    > 30 µM
6) O=C(CCCCCCC(=O)Nc1ccccc1)NO    > 30 µM
7) CCCC(=O)N1CCCN(c2nc(N)c3cc(OC)c(OC)cc3n2)CC1    > 30 µM

----------
Parameter AC50: see the listing below.
- measuredTarget: 5-hydroxytryptamine receptor 2B (Homo sapiens); also: assay procedure not described here
- Sequence (P41595 whole entry): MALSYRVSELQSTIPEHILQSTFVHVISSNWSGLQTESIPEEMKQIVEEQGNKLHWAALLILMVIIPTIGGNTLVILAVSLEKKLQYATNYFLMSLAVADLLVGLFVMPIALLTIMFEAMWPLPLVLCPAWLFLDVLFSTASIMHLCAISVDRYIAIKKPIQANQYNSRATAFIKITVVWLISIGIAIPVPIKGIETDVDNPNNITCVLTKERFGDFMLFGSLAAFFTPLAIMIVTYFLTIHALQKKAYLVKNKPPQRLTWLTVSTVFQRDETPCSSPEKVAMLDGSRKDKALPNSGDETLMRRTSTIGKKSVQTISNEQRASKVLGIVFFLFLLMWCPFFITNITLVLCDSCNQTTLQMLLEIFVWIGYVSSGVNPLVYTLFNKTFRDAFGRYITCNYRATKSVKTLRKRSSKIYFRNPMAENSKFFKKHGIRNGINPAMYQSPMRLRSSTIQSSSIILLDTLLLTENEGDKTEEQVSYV
- Assay type: functional, cell-based
measurementType: AC50

1. CN[C@@H]1[C@H](O)[C@H](NC)[C@H]2O[C@@]3(O)C(=O)C[C@@H](C)O[C@H]3O[C@@H]2[C@H]1O    > 30 µM
2. CC(=O)N(CC(O)CO)c1c(I)c(C(=O)NCC(O)CO)c(I)c(C(=O)NCC(O)CO)c1I (configuration not stated) [IOHEXOL]    > 10 µM
3. CCC[C@@H]1C[C@@H](C(=O)N[C@@H]([C@H]2O[C@H](SC)[C@H](O)[C@@H](O)[C@H]2O)[C@H](C)Cl)N(C)C1    > 10 µM
4. Nc1nc(N)c2nc(-c3ccccc3)c(N)nc2n1    > 30 µM
5. CCCC(CCC)C(=O)O[C@H]1C[C@H]2CC[C@@H](C1)[N+]2(C)C    > 30 µM
6. NC(=O)c1cnccn1 [PYRAZINAMIDE]    > 30 µM
7. CC(C)(N)Cc1ccc(Cl)cc1    25 µM
8. CN(C)C(=O)OC1N=C(c2ccccc2)c2cc(Cl)ccc2N(C)C1=O (configuration not stated)    18 µM
9. CN[C@@H](C)[C@H](O)c1ccccc1    > 10 µM
10. COCC1=C(C(=O)OC(C)OC(=O)OC(C)C)N2C(=O)[C@@H](NC(=O)/C(=N\OC)c3csc(N)n3)[C@H]2SC1 (some centres not stated)    > 30 µM
11. CC(C)NCC(O)COc1ccc(COCCOC(C)C)cc1 (configuration not stated)    > 10 µM
12. Cc1ccc(-c2nc3ccc(C)cn3c2CC(=O)N(C)C)cc1    29 µM
13. NC(CO)C(=O)NNCc1ccc(O)c(O)c1O (configuration not stated) [BENSERAZIDE]    > 10 µM
14. C#C[C@]1(O)CC[C@H]2[C@@H]3CCc4cc(O)ccc4[C@H]3CC[C@@]21C    18 µM
15. CC[C@H](C)C(=O)O[C@H]1C[C@H](O)C=C2C=C[C@H](C)[C@H](CC[C@@H](O)C[C@@H](O)CC(=O)O)[C@H]21    > 30 µM
16. CN1CCCN=C1COC(=O)C(O)(c1ccccc1)C1CCCCC1 (configuration not stated)    > 10 µM
17. COC(=O)N[C@H](C(=O)N1CCC[C@H]1c1nc(-c2ccc(-c3ccc(-c4c[nH]c([C@@H]5CCCN5C(=O)[C@@H](NC(=O)OC)C(C)C)n4)cc3)cc2)c[nH]1)C(C)C    > 30 µM

----------
- measuredTarget: Prostaglandin G/H synthase 1 (Homo sapiens); also: assay procedure not described here
- Sequence (P23219 whole entry): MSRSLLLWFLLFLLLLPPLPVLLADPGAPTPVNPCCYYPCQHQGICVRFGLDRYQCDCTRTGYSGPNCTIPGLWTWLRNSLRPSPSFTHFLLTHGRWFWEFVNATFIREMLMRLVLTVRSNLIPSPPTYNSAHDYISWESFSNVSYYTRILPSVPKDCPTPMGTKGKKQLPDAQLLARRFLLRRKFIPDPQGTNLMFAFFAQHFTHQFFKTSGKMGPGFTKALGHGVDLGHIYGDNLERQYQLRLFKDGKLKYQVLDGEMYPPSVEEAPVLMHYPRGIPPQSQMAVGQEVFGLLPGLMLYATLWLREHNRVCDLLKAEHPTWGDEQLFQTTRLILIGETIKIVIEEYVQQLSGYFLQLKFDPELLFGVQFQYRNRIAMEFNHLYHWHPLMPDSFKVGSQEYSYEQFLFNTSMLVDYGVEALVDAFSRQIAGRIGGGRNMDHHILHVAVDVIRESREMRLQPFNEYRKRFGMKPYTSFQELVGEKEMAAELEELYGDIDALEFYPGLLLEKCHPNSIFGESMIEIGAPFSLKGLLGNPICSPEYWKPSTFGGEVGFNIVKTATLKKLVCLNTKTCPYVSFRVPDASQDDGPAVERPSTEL
- Assay type: functional
measurementType: AC50

1. CC(C(=O)O)c1ccc(N2CC=CC2)c(Cl)c1 (stereo not given) [PIRPROFEN]    0.115 µM
2. COc1cc2c(cc1OC)C(=O)C(CC1CCN(Cc3ccccc3)CC1)C2 (stereo not given) [DONEPEZIL]    > 30 µM
3. C[N+](C)(C)CCCCCCCCCC[N+](C)(C)C [DECAMETHONIUM]    > 30 µM
4. C[C@H]1O[C@H](O[C@H]2[C@H](O)[C@@H](O)[C@@H](O[C@H]3[C@H](O)[C@@H](O)C(O)O[C@@H]3CO)O[C@@H]2CO)[C@H](O)[C@@H](O)[C@@H]1N[C@H]1C=C(CO)[C@@H](O)[C@H](O)[C@H]1O (stereo not given in full) [ACARBOSE]    24.4 µM
5. CCC(=O)O[C@H]1[C@H](O[C@@H]2[C@@H](C)[C@H](O[C@H]3C[C@@](C)(OC)[C@@H](O)[C@H](C)O3)[C@@H](C)C(=O)O[C@H](CC)[C@@](C)(O)[C@H](O)[C@@H](C)C(=O)[C@H](C)C[C@@]2(C)O)O[C@H](C)C[C@@H]1N(C)C [ERYTHROMYCIN PROPIONATE]    > 30 µM
6. CC/C=C\C/C=C\C/C=C\C/C=C\C/C=C\CCCC(=O)O [ICOSAPENT]    9.84 µM
7. COc1ccc2c(c1)OC(C)(C)C(c1ccccc1)C2c1ccc(OCCN2CCCC2)cc1 (stereo not given) [ORMELOXIFENE]    4.3 µM
8. CC[C@@H]1/C=C(\C)C[C@H](C)C[C@H](OC)[C@H]2O[C@@](O)(C(=O)C(=O)N3CCCC[C@H]3C(=O)O[C@H](/C(C)=C/[C@@H]3CC[C@H](Cl)[C@H](OC)C3)[C@H](C)[C@@H](O)CC1=O)[C@H](C)C[C@@H]2OC [PIMECROLIMUS]    > 30 µM
9. O=C(NC[C@H]1CN(c2ccc(N3CCOCC3=O)cc2)C(=O)O1)c1ccc(Cl)s1 [RIVAROXABAN]    > 30 µM
10. Cn1cc[nH]c1=S [METHIMAZOLE]    > 30 µM
11. NCc1ccccc1CC(=O)N[C@@H]1C(=O)N2C(C(=O)O)=C(CSc3nnnn3CC(=O)O)CS[C@H]12 [CEFORANIDE]    > 30 µM
12. NC(=O)c1cnccn1 [PYRAZINAMIDE]    > 30 µM
13. CCN(CC)CCNc1ccc(C)c2sc3ccccc3c(=O)c12 [LUCANTHONE]    > 30 µM
14. CCC(=O)c1c(O)cc(O)cc1O [FLOPROPIONE]    22.3 µM
15. CN(C)C(=O)Oc1ccc[n+](C)c1 [PYRIDOSTIGMINE]    > 30 µM
